molecular target: USP1/UAF1 enzyme (Homo sapiens); assay: USP1/UAF1 deubiquitination assay (ubiquitin-rhodamine 110 substrate); details: read-out: USP1 IC50 (Ub-Rho)
Sequence (O94782 whole entry): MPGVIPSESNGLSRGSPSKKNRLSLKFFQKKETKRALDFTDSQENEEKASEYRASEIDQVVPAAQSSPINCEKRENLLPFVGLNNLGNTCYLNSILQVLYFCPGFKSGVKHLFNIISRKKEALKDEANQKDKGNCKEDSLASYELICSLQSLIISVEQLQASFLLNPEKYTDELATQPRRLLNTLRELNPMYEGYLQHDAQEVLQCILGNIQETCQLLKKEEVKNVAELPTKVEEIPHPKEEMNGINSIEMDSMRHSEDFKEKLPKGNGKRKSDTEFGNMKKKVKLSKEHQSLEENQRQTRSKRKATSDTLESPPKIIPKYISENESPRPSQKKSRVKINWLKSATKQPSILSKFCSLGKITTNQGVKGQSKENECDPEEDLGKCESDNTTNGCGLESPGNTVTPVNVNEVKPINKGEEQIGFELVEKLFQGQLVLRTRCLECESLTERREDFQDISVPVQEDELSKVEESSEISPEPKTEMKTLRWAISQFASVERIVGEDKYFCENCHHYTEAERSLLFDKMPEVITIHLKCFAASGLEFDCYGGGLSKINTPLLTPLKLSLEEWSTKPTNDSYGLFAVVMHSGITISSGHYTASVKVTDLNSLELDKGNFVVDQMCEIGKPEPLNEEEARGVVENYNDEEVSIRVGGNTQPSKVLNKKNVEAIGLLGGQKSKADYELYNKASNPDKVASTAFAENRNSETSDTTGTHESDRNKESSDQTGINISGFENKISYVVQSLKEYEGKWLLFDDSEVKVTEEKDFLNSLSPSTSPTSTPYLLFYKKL
Sequence (Q8TAF3 whole entry partner): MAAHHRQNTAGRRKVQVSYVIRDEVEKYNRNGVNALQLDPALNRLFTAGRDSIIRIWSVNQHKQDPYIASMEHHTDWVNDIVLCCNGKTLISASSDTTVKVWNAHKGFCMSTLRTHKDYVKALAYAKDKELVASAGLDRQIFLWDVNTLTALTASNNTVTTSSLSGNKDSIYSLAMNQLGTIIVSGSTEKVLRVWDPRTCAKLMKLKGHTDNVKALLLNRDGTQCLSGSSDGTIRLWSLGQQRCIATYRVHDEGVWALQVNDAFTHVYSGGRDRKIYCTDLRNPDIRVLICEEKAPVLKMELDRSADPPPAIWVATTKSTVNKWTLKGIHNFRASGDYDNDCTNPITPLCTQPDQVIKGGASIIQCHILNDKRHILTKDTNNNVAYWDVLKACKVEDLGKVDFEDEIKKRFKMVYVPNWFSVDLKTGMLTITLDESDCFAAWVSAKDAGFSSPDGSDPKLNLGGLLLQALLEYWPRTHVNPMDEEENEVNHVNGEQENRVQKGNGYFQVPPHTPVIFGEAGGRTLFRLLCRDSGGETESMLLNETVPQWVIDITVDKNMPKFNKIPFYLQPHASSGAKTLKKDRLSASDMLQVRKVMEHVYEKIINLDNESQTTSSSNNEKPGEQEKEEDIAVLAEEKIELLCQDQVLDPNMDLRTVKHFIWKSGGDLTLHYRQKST
pIC50: −log10 of the molar value.
quantity_kind: pIC50

Below, each entry is followed by its recorded pIC50 result.
| compound | pIC50 |
| --- | --- |
| CCn1cc(C(F)(F)F)nc1-c1ccc(CN2C(=O)CCn3nc(-c4c(Cl)cnn4C(C)C)c(C#N)c32)cc1 [Example 223] | > 7.00 |
| COc1ncnc(C2CC2)c1-c1nc2n(n1)CCC(=O)N2Cc1ccc(-c2nc(C(F)(F)F)cn2C(C)C)c(F)c1 [Example 164] | > 7.00 |
| CCn1cc(C(F)(F)F)nc1-c1ccc(Cn2c(=O)c(C)cn3nc(-c4c(OC(F)F)ncnc4C4CC4)nc23)cc1 [Example 392] | > 7.00 |
| Cc1cnn(C(C)C)c1-c1nc2n(n1)CCCN2Cc1ccc(-c2nc(C(F)(F)F)cn2C)cc1 [Example 221] | > 7.00 |
| CCn1cc(C(F)(F)F)nc1-c1ccc(C(C)n2c(=O)ccn3nc(-c4c(OC)ncnc4C4CC4)nc23)cc1 (centres unmarked) [Example 340] | > 7.00 |

Given item COc1ncnc(C2CC2)c1-c1cc2n(n1)CCC(=O)N2Cc1ccc(-n2nc(C)cc2C(F)(F)F)c(F)c1 [Example 88] , the value recorded as its pIC50 is 6.30 to 7.00

Given item Cc1cc(C(F)(F)F)n(-c2ccc(CN3C(=O)CCn4nc(-c5c(Cl)cnn5C(C)C)cc43)cc2F)n1 [Example 92] , the value recorded as its pIC50 is < 6.30

----------
test: ADME solubility determination in PBS at pH 2.0 and pH 7.4; type: physicochemical; details: phosphate buffered saline, 25 °C, pH 7.4, aqueous buffer, thermodynamic from solid, PBS pH 7.4, 25° C., read-out: Solubility at pH 7.4
solubility at 24 h by entry:

Below, each entry is followed by its recorded solubility at 24 h result.
| compound | solubility at 24 h |
| --- | --- |
| CCn1cc(C(F)(F)F)nc1-c1ccc(NC2CCCCn3nc(-c4c(Cl)cnn4C(C)C)cc32)cc1 (centres unmarked) | < 10 µM |
| COc1ncnc(C2CC2)c1-c1nc2n(n1)CCC(=O)N2[C@H](C)c1ccc(-c2nc(C(F)(F)F)c(Br)n2C)cc1 | < 10 µM |
| COc1ncnc(C2CC2)c1-c1nc2n(n1)CCC(=O)N2[C@H](C)c1ccc(-n2nc(C(F)(F)F)cc2C)c(F)c1 | ≥ 10 µM |
| CCn1cc(C(F)(F)F)nc1-c1ccc(CN2C(=O)CCn3nc(-c4c(Cl)cnn4C(C)COC)cc32)cc1F (centres unmarked) | < 10 µM |
| CC(C)n1ncc(Cl)c1-c1cc2n(n1)CCC(=O)N2Cc1ccc(-c2ncccc2N(C)C)c(Cl)c1 | < 10 µM |

Given item COc1cc([C@H](C)N2C(=O)CCn3nc(-c4c(OC)ncnc4C4CC4)cc32)ccc1-c1nc(C(F)(F)F)cn1C(C)C , the value recorded as its solubility at 24 h is < 10 µM

Given item CCn1cc(C(F)(F)F)nc1-c1ccc([C@@H](C)N2C(=O)CCn3nc(-c4c(Cl)cnn4C(C)C)nc32)cc1F , the value recorded as its solubility at 24 h is < 10 µM

Given item CC(C)n1cc(C(F)(F)F)nc1-c1ccc([C@H](C)N2C(=O)CCn3nc(-c4c(Cl)cnn4C(C)C)nc32)cc1 , the value recorded as its solubility at 24 h is < 10 µM

Given item CC(C)n1cc(C(F)(F)F)nc1-c1ccc(C(N2CCCn3nc(-c4c(Cl)cnn4C(C)C)cc32)C(F)(F)F)cc1F (centres unmarked) , the value recorded as its solubility at 24 h is < 10 µM

----------
half-life at 1 μM by entry:
assay: Liver microsomal metabolic stability, human liver microsomes (HLM); conditions: human, liver microsomes

Below, each entry is followed by its recorded half-life at 1 μM result.
| compound | half-life at 1 μM |
| --- | --- |
| COc1nccc(C2CC2)c1-c1nc2n(n1)CCC(=O)N2Cc1ccc(-c2nc(C(F)(F)F)cn2C(C)C)c(F)c1 | > 25 min |
| CCn1cc(C(F)(F)F)nc1-c1ccc(CN2C(=O)[C@@H](C)Cn3nc(-c4c(OC)ncnc4C4CC4)nc32)cc1F (single isomer, unassigned) | > 25 min |
| CCn1cc(C(F)(F)F)nc1-c1ccc([C@H](C)n2c(=O)ccn3nc(-c4c(OC)ncnc4C4CC4)nc23)cc1F | > 25 min |
| COc1ncnc(C2CC2)c1-c1nn2c(c1C)N(Cc1ccc(-c3nc(C(F)(F)F)cn3C)cc1)C(=O)CC2 | < 25 min |

Given item Cc1cnn(C(C)C)c1-c1cc2n(n1)C(C)CC(=O)N2Cc1ccc(-c2nc(C(F)(F)F)cn2C)cc1 (centres unmarked) , the value recorded as its half-life at 1 μM is < 25 min

Given item CCn1cc(C(F)(F)F)nc1-c1ccc(NC2c3cc(-c4c(Cl)cnn4C(C)C)nn3CCC2(C)C)cc1 (centres unmarked) , the value recorded as its half-life at 1 μM is > 25 min

Given item CCn1cc(C(F)(F)F)nc1-c1ccc(CN2CCCn3nc(-c4c(OC)ncnc4C4CC4)cc32)cc1F , the value recorded as its half-life at 1 μM is < 25 min

Given item COc1cc(C(F)(F)F)nn1-c1ccc(CN2CCCn3nc(-c4c(C)cnn4C(C)C)cc32)cc1F , the value recorded as its half-life at 1 μM is < 25 min

Given item CCn1cc(C(F)(F)F)nc1-c1ccc(CN2C(=O)CCn3nc(-c4c(Cl)cnn4C(C)COC)cc32)cc1 (centres unmarked) , the value recorded as its half-life at 1 μM is < 25 min

Given item CC(C)n1ncc(Cl)c1-c1cc2n(n1)CCC(=O)N2Cc1ccc(-c2nc(C(F)(F)F)cn2CCF)cc1 , the value recorded as its half-life at 1 μM is > 25 min

Given item CCn1cc(C(F)(F)F)nc1-c1ccc(NC2CCCCn3nc(-c4c(Cl)cnn4C(C)C)cc32)cc1 (centres unmarked) , the value recorded as its half-life at 1 μM is < 25 min

Given item CCn1cc(C(F)(F)F)nc1-c1ccc(NC2CCCn3nc(-c4c(C#N)cnn4C(C)C)cc32)cc1F (centres unmarked) , the value recorded as its half-life at 1 μM is > 25 min

Given item CC(C)n1ncc(Cl)c1-c1cc2n(n1)CCC(=O)N2Cc1ccc(-c2ncccc2N(C)C)c(Cl)c1 , the value recorded as its half-life at 1 μM is < 25 min

Given item COc1ncnc(C2CC2)c1-c1nc2n(n1)CCC(=O)N2Cc1ccc(-c2nc(C(F)(F)F)cn2C)cc1 , the value recorded as its half-life at 1 μM is > 25 min

----------
experiment: Liver microsomal metabolic stability, human liver microsomes (HLM); settings: human, liver microsomes
quantity_kind: half-life at 1 μM

Below, each entry is followed by its recorded half-life at 1 μM result.
| compound | assay_result |
| --- | --- |
| Cc1cnn(C(C)C)c1-c1cc2n(n1)CCCN2Cc1ccc(-n2nc(C(F)(F)F)cc2C)cc1 | < 25 min |
| Cc1cnn(C(C)C)c1-c1nn2c(c1Cl)N(Cc1ccc(-c3nc(C(F)(F)F)cn3C(C)C)c(F)c1)CCC2 | < 25 min |
| CC(C)Oc1cccnc1-c1ccc(CN2C(=O)CCn3nc(-c4c(Cl)cnn4C(C)C)cc32)cc1 | < 25 min |
| CCn1cc(C(F)(F)F)nc1-c1ccc([C@@H](C)n2c(=O)ccn3nc(-c4c(OC)ncnc4C4CC4)nc23)cc1F | > 25 min |
| COc1ncnc(C2CC2)c1-c1cc2n(n1)CCC(=O)N2Cc1ccc(-n2nc(C(F)(F)F)cc2OC)cc1 | > 25 min |

Given item CCn1cc(C(F)(F)F)nc1-c1ccc(CN2C(=O)[C@H](C)Cn3nc(-c4c(OC)ncnc4C4CC4)nc32)cc1F (single isomer, unassigned) , the value recorded as its half-life at 1 μM is > 25 min

----------
half-life at 1 μM by entry:
assay: Liver microsomal metabolic stability, human liver microsomes (HLM); conditions: human, liver microsomes

Below, each entry is followed by its recorded half-life at 1 μM result.
| compound | half-life at 1 μM |
| --- | --- |
| Cc1cn(C)nc1-c1ccc(CN2C(=O)CCn3nc(-c4c(Cl)cnn4C(C)C)cc32)cc1 | < 25 min |
| COc1cc(CN2C(=O)CCn3nc(-c4c(OC)ncnc4C4CC4)cc32)cc(F)c1-c1nc(C(F)(F)F)cn1C(C)C | > 25 min |
| CCn1cc(C(F)(F)F)nc1-c1ccc([C@H](C)N2C(=O)CCn3nc(-c4c(OC)ncnc4C4CC4)nc32)cc1 | < 25 min |

// next entry
Given item COc1ncnc(C2CC2)c1-c1nc2n(n1)CCC(=O)N2[C@H](C)c1ccc(-c2nc(C(F)(F)F)cn2C(C)C)cc1 , the value recorded as its half-life at 1 μM is > 25 min
